# measured_on: HLA-A*03:01
# assay_notes: IEDB peptide-MHC binding, purified MHC/competitive/radioactivity; filed as Kd, often an IC50 or EC50 that approximates it; bounds were set here for any values at or beyond the usual limits of such assays
# condition_context: source organism: Vaccinia virus WR
quantity_measured: log10 Kd (log10 of the value in nM)
log10 Kd, nM

Enquiry: Which log10 Kd is listed for IINFTISMRY ?
Return: 1.55

Enquiry: Report log10 Kd for MVDELVTRK please.
Return: 1.84

Enquiry: What does the record list as log10 Kd for TIPIGMQFDK ?
Return: 3.78

Enquiry: Looking for the measured log10 Kd of DAKNDDWKK , can you help?
Return: 3.92

Enquiry: For the sequence TIAGGVCYY , what log10 Kd is on record?
Return: 2.04

Enquiry: Returns the measured log10 Kd for the input sequence. Input: HIVCSKTVK
Return: 2.46

Enquiry: What value of measured log10 Kd is listed for HIASKINNNR ?
Return: 3.29

Enquiry: What measured log10 Kd goes with ILKKLSSIK ?
Return: 0.67

Enquiry: What value of log10 Kd has been reported for the following sequence? LIKFISDNKK
Return: 2.15

Enquiry: What log10 Kd value was documented for this sequence, YLSTFNMWR ?
Return: 2.30
